# target.system: CXCR4 (Homo sapiens, UniProt P61073)
# Construct: host or cells: CCRF-HSB2 human T cells
# Sequence (P61073 whole entry): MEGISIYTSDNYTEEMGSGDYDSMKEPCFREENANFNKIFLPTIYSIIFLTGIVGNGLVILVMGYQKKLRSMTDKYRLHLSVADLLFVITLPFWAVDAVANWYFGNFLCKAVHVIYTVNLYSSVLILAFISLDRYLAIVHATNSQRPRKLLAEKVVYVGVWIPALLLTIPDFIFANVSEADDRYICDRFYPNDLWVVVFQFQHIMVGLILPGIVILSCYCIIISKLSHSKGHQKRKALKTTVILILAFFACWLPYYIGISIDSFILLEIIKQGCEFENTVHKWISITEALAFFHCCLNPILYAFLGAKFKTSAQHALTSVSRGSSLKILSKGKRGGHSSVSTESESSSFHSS
# measurement.protocol: Inhibition experiment against induction activity of SDF-1 on transitory increase of Ca ion
# Type: cell-based
# run.parameters: test compound 10 μM; SDF-1β 30 nM added 3 minutes after compound; CCRF-HSB2 human T cells loaded with Fura-2AM
measured.parameter: Inhibition rate (%)
Reply with just the number (in %).

Here are 4 molecules together with their reported answers.
- molecule: "CCCCCCCCCCCCCC(=O)O[C@H]1[C@H](OS(=O)(=O)O)[C@@H](CO)OC(O)[C@@H]1NC(=O)c1ccc(OCCCCCCCCCC)c(OCCCCCCCCCC)c1 (some centres unmarked)"
  measured.parameter: "Inhibition rate (%)"
  units.label: "%"
  endpoint.value: 93
- molecule: "CCCCCCCCCCC[C@@H](CC(=O)N[C@H]1C(O)O[C@H](CO)[C@@H](OS(=O)(=O)[O-])[C@@H]1OC(=O)CCc1ccccc1)OC(=O)CCCCCCCCc1ccccc1.[Na+] (some centres unmarked)"
  measured.parameter: "Inhibition rate (%)"
  units.label: "%"
  endpoint.value: 93
- molecule: "CCCCCCCCC[C@@H](CC(=O)N[C@H]1C(O)O[C@H](CO)[C@@H](OS(=O)(=O)[O-])[C@@H]1OC(=O)CCCCCCCCc1ccccc1)OC(=O)CCCCCCCCc1ccccc1.[Na+] (some centres unmarked)"
  measured.parameter: "Inhibition rate (%)"
  units.label: "%"
  endpoint.value: 92
- molecule: "CCCCCCCCCCC[C@@H](CC(=O)N[C@H]1C(O)O[C@H](CO)[C@@H](OS(=O)(=O)O)[C@@H]1OC(=O)CCCCc1ccc(CCCCC)cc1)OC(=O)CCCCc1ccc(CCCCC)cc1 (some centres unmarked)"
  measured.parameter: "Inhibition rate (%)"
  units.label: "%"
  endpoint.value: 97

Attention now turns to another entry.
Fill in: Inhibition rate (%) of CCCCCCCCCCCCCC(=O)O[C@@H](CCCCCCCCCCC)CC(=O)N[C@H]1C(O)O[C@H](C)[C@@H](OS(=O)(=O)O)[C@@H]1OC(=O)CCCCCCCCCCCCC (some centres unmarked) is ___ 92

###

Recorded Inhibition rate (%) by entry
# target.system: CXCR4 (Homo sapiens, UniProt P61073)
# Construct: host or cells: CCRF-HSB2 human T cells
# measurement.protocol: Inhibition experiment against induction activity of SDF-1 on transitory increase of Ca ion
# Assay type: cell-based
# run.parameters: test compound 10 μM; SDF-1β 30 nM added 3 minutes after compound; CCRF-HSB2 human T cells loaded with Fura-2AM
# Protocol: As described above, for screening a compound inhibiting the binding of HIV to CXCR4 which is a receptor on T cell, it is a more direct procedure to carry out the screening in an assay system using HIV virus. However, use of HIV virus on a large scale screening is not practical owing to its difficulty of handling. […] Ec: measured value of the transitory increase of Ca induced by SDF-1β Ea: measured value of the transitory increase of Ca induced by SDF-1β when a test compound was added.
Field: numeric (%). Do not append units.

Would you please look over these solved cases?
- compound: "O=C(CCCCCCCCc1ccc2ccccc2c1)N[C@H]1C(O)O[C@H](CO)[C@@H](OS(=O)(=O)O)[C@@H]1OC(=O)CCCCCCCCc1ccc2ccccc2c1 (some centres unmarked) [Compound (6)]"
  Inhibition rate (%): 97
- compound: "O=C(C[C@H](CCCCCCc1ccccc1)OC(=O)CCCCCCCCc1ccccc1)N[C@H]1C(O)O[C@H](CO)[C@@H](OS(=O)(=O)O)[C@@H]1OC(=O)CCCCCCCCc1ccccc1 (some centres unmarked) [Compound (2)]"
  Inhibition rate (%): 96
- compound: "CCCCCCCCCCCC(CC(=O)NC1CCCC(OS(=O)(=O)O)C1OC(=O)CCCCCCCCc1ccccc1)OC(=O)CCCCCCCCc1ccccc1 (centres unmarked) [Compound (13)]"
  Inhibition rate (%): 86
- compound: "CCCCCCCCCCC[C@H](CC(=O)N[C@H]1C(O)O[C@H](CO)[C@@H](OS(=O)(=O)[O-])[C@@H]1OC(=O)CCCCCCCCc1ccccc1)OC(=O)CCCCCCCCc1ccccc1.[Na+] (some centres unmarked) [Compound (18)]"
  Inhibition rate (%): 91
- compound: "CCCCCCCCCCC[C@@H](CC(=O)N[C@H]1CO[C@H](C)[C@@H](OS(=O)(=O)O)[C@@H]1OC(=O)CCCCCCCCc1ccccc1)OC(=O)CCCCCCCCc1ccccc1 [Compound (12)]"
  Inhibition rate (%): 94

Return reported Inhibition rate (%); argument: CCCCCCCCCCC[C@@H](CC(=O)N[C@H]1C(O)O[C@H](CO)[C@@H](OS(=O)(=O)[O-])[C@@H]1OC(=O)CCCCCCCCc1ccccc1)OC(=O)CCCCCCCCc1ccccc1.[Na+] (some centres unmarked) [Compound (1)] 93

Similarly, CCCCCCCCCCC[C@@H](CC(=O)N[C@H]1C(O)O[C@H](CO)[C@@H](OS(=O)(=O)O)[C@@H]1OC(=O)CCCCCCCOc1cc(Cl)cc(Cl)c1)OC(=O)CCCCCCCOc1cc(Cl)cc(Cl)c1 (some centres unmarked) [Compound (7)] ? 95

What about this compound? CCCCCCCCCCCCC[C@@H](CC(=O)N[C@H]1C(O)O[C@H](CO)[C@@H](OS(=O)(=O)[O-])[C@@H]1OC(=O)CCCCCCCCc1ccccc1)OC(=O)CCCCCCCCc1ccccc1.[Na+] (some centres unmarked) [Compound (17)] 93

###

# target.system: CXCR4 (Homo sapiens, UniProt P61073)
# Construct: host or cells: CCRF-HSB2 human T cells
# measurement.protocol: Inhibition experiment against induction activity of SDF-1 on transitory increase of Ca ion
# Type: cell-based
# run.parameters: test compound 10 μM; SDF-1β 30 nM added 3 minutes after compound; CCRF-HSB2 human T cells loaded with Fura-2AM
Each record here notes measured Inhibition rate (%).
Express your answer in %, writing the number without its unit.

These recorded examples may help you get a feel for the data.
- compound: "CCCCCCCCCCC[C@@H](CC(=O)N[C@H]1C(O)O[C@H](CO)[C@@H](OS(=O)(=O)[O-])[C@@H]1OC(=O)CCCCCCCCc1ccccc1)OC(=O)CCc1ccccc1.[Na+] (some centres unmarked)"
  Inhibition rate (%): 96
- compound: "CCCCCCCCCCC[C@@H](CC(=O)N[C@H]1C(O)O[C@H](CO)[C@@H](OS(=O)(=O)O)[C@@H]1OC(=O)CCCCCCCCc1ccc(Cl)cc1)OC(=O)CCCCCCCCc1ccc(Cl)cc1 (some centres unmarked)"
  Inhibition rate (%): 96
- compound: "CCCCCCCCCCCCCC(=O)O[C@@H]1[C@@H](NC(=O)c2ccc(OCCCCCCCCCC)c(OCCCCCCCCCC)c2)[C@@H](OC)O[C@H](CO)[C@H]1OS(=O)(=O)O"
  Inhibition rate (%): 91

Report Inhibition rate (%) for CCCCCCCCCCCC(CC(=O)N[C@H]1COC[C@@H](OS(=O)(=O)O)[C@@H]1OC(=O)CCCCCCCCc1ccccc1)OC(=O)CCCCCCCCc1ccccc1 (some centres unmarked) please. 94

Entry to check: CCCCCCCCCCC[C@@H](CC(=O)N[C@H]1C(O)O[C@H](CO)[C@@H](OS(=O)(=O)O)[C@@H]1OC(=O)CCCCCCCc1ccc(OC)cc1)OC(=O)CCCCCCCc1ccc(OC)cc1 (some centres unmarked) 97
